Tested on: drug-resistant liver cancer cells (R-HepG2)
Test: MTT cytotoxicity assay, R-HepG2
Assay type: cell-based
Conditions: Homo sapiens, 72 h cell treatment
Protocol: The cells (5 × 10^4 cells/well) were incubated overnight in 96-well plates. A series of solutions containing varying concentrations of inhibitors were added and incubated at 37°C for a period of 72 h. Subsequently, the culture medium was removed, followed by a subsequent incubation of the cells with a 5 mg/mL MTT stock solution for 4 h. […] Finally, the absorbance measurement at 570 nm was completed using a microplate reader. […]
REPORTED PROPERTY: IC50 (µM)
Your answer is read as µM, so omit the unit and give the number.

I have this molecule here, Cn1cc(-c2cc3cnc(Nc4ccc(-c5cncn5/C=C/C(=O)NO)cc4Cl)cc3n2C(=O)OC(C)(C)C)cn1 , and I need its recorded IC50. 0.27
